Test system: G-401 (Other Solid Carcinomas)
PROCEDURE TEXT: combination Emax (second highest fraction inhibited in the dose matrix, 72 h); higher = more inhibition; extreme values may be limits of the assay
Consider the following compounds; for each one, report its combination Emax.
Number, no unit, nothing else.

Qu. Return reported combination Emax; argument: C[C@@H]1COCCN1c1cc(C2([S@](C)(=N)=O)CC2)nc(-c2ccnc3[nH]ccc23)n1 [AZD6738] + O=C(c1cc(Cc2n[nH]c(=O)c3ccccc23)ccc1F)N1CCN(C(=O)C2CC2)CC1 [Olaparib] (first compound max 10 µM, 7x7, partner max 10 µM)
Ans. 0.491

Qu. Return reported combination Emax; argument: Cn1cnc2c(F)c(Nc3ccc(Br)cc3Cl)c(C(=O)NOCCO)cc21 [Selumetinib] + C[C@@H]1COCCN1C2=NC(=NC(=C2)C3(CC3)[S@](=N)(=O)C)C4=C5C=CNC5=NC=C4 [AZD6738] (first compound max 10 µM, 7x7, partner max 10 µM)
Ans. 0.684

Qu. Return reported combination Emax; argument: CC(=O)c1c(C)c2cnc(Nc3ccc(N4CCNCC4)cn3)nc2n(C2CCCC2)c1=O [Palbociclib] + CC1(C)CCC(CN2CCN(c3ccc(C(=O)NS(=O)(=O)c4ccc(NCC5CCOCC5)c([N+](=O)[O-])c4)c(Oc4cnc5[nH]ccc5c4)c3)CC2)=C(c2ccc(Cl)cc2)C1 [Venetoclax] (first compound max 10 µM, 7x7, partner max 1 µM)
Ans. 0.849

Qu. Return reported combination Emax; argument: NC1(C(=O)N[C@@H](CCO)c2ccc(Cl)cc2)CCN(c2ncnc3[nH]ccc23)CC1 [Capivasertib] + CC(=O)c1c(C)c2cnc(Nc3ccc(N4CCNCC4)cn3)nc2n(C2CCCC2)c1=O [Palbociclib] (first compound max 10 µM, 7x7, partner max 10 µM)
Ans. 0.898

Qu. Return reported combination Emax; argument: CC1(C)CCC(CN2CCN(c3ccc(C(=O)NS(=O)(=O)c4ccc(NCC5CCOCC5)c([N+](=O)[O-])c4)c(Oc4cnc5[nH]ccc5c4)c3)CC2)=C(c2ccc(Cl)cc2)C1 [Venetoclax] + CCN(CCO)CCCOc1ccc2c(Nc3cc(CC(=O)Nc4cccc(F)c4)[nH]n3)ncnc2c1 [AZD2811] (first compound max 1 µM, 7x7, partner max 1 µM)
Ans. 0.483

Qu. Return reported combination Emax; argument: CCN(CCO)CCCOc1ccc2c(Nc3cc(CC(=O)Nc4cccc(F)c4)[nH]n3)ncnc2c1 [AZD2811] + C[C@@H]1COCCN1C2=NC(=NC(=C2)C3(CC3)[S@](=N)(=O)C)C4=C5C=CNC5=NC=C4 [AZD6738] (first compound max 1 µM, 7x7, partner max 10 µM)
Ans. 0.536

Qu. Return reported combination Emax; argument: Cc1cc2ncnn2cc1Nc1ncc2c(n1)n(C1CCOCC1)c(=O)n2C [AZD7648] + C[C@@H]1COCCN1C2=NC(=NC(=C2)C3(CC3)[S@](=N)(=O)C)C4=C5C=CNC5=NC=C4 [AZD6738] (first compound max 10 µM, 7x7, partner max 10 µM)
Ans. 0.379

Qu. Return reported combination Emax; argument: COc1cc2ncnc(Nc3ccc(F)c(Cl)c3)c2cc1OCCCN1CCOCC1 [Gefitinib] + CC(C)n1c(=O)n(C)c2cnc3cc(F)c(-c4ccc(OCCCN5CCCCC5)nc4)cc3c21 [AZD1390] (first compound max 10 µM, 7x7, partner max 0.3 µM)
Ans. 0.404

###

Tested on: SW872 (Other Solid Carcinomas)
PROCEDURE TEXT: combination Emax (second highest fraction inhibited in the dose matrix, 72 h); higher = more inhibition; extreme values may be limits of the assay
Label FALSE if combination Emax falls below 0.5; label TRUE in every other case.

Qu. Is the recorded value of combination Emax equal to or greater than 0.5 for this compound? COc1nnc2ccc(N3CCC(c4ccc(OCCN5CCN(C)C(=O)[C@H]5C)cc4)CC3)nn12 [AZD5153] + CC1(C)CCC(CN2CCN(c3ccc(C(=O)NS(=O)(=O)c4ccc(NCC5CCOCC5)c([N+](=O)[O-])c4)c(Oc4cnc5[nH]ccc5c4)c3)CC2)=C(c2ccc(Cl)cc2)C1 [Venetoclax] (first compound max 1 µM, 7x7, partner max 1 µM)
Ans. TRUE

Qu. Is the recorded value of combination Emax equal to or greater than 0.5 for this compound? CN(CCO)CC[C@H](CSc1ccccc1)Nc1ccc(S(=O)(=O)NC(=O)c2ccc(N3CCC([C@@H](O)c4ccccc4-c4ccc(Cl)cc4)CC3)cc2)cc1S(=O)(=O)C(F)(F)F [AZD4320] + Cc1cc2ncnn2cc1Nc1ncc2c(n1)n(C1CCOCC1)c(=O)n2C [AZD7648] (first compound max 1 µM, 7x7, partner max 10 µM)
Ans. FALSE

Qu. Is the recorded value of combination Emax equal to or greater than 0.5 for this compound? CS(=O)(=O)CCNCc1ccc(-c2ccc3ncnc(Nc4ccc(OCc5cccc(F)c5)c(Cl)c4)c3c2)o1 [Lapatinib] + NC1(c2ccc(-c3nc4ccn5c(=O)[nH]nc5c4cc3-c3ccccc3)cc2)CCC1 [MK-2206] (first compound max 10 µM, 7x7, partner max 10 µM)
Ans. FALSE

Qu. Is the recorded value of combination Emax equal to or greater than 0.5 for this compound? O=C(c1cc(Cc2n[nH]c(=O)c3ccccc23)ccc1F)N1CCN(C(=O)C2CC2)CC1 [Olaparib] + COc1nnc2ccc(N3CCC(c4ccc(OCCN5CCN(C)C(=O)[C@H]5C)cc4)CC3)nn12 [AZD5153] (first compound max 10 µM, 7x7, partner max 1 µM)
Ans. TRUE

Qu. Is the recorded value of combination Emax equal to or greater than 0.5 for this compound? COc1nnc2ccc(N3CCC(c4ccc(OCCN5CCN(C)C(=O)[C@H]5C)cc4)CC3)nn12 [AZD5153] + CCN(CCO)CCCOc1ccc2c(Nc3cc(CC(=O)Nc4cccc(F)c4)[nH]n3)ncnc2c1 [AZD2811] (first compound max 1 µM, 7x7, partner max 1 µM)
Ans. TRUE

Qu. Is the recorded value of combination Emax equal to or greater than 0.5 for this compound? Cc1nc(-c2cn3c(n2)-c2ccc(-c4cnn(C(C)(C)C(N)=O)c4)cc2OCC3)n(C(C)C)n1 [Taselisib] + O=C(Nc1ccc2[nH]nc(-c3ccncc3)c2c1)[C@@H]1CCN(CC(=O)N2CCN(c3ccc(-c4ncccn4)cc3)CC2)C1 [SCH772984] (first compound max 10 µM, 7x7, partner max 5 µM)
Ans. TRUE

###

System: HCC2998 (Colorectal Carcinoma)
PROCEDURE TEXT: Bliss excess, mean over the matrix (fraction); higher = more synergy
ATTRIBUTE MEASURED: Bliss excess

Qu. // map NC1(C(=O)N[C@@H](CCO)c2ccc(Cl)cc2)CCN(c2ncnc3[nH]ccc23)CC1 [Capivasertib] + CC(=O)c1c(C)c2cnc(Nc3ccc(N4CCNCC4)cn3)nc2n(C2CCCC2)c1=O [Palbociclib] (first compound max 10 µM, 7x7, partner max 10 µM) to recorded Bliss excess (system: HCC2998 (Colorectal Carcinoma))
Ans. -0.0745

Qu. // map C[C@@H](c1ccc2nccn2c1)n1nnc2ncc(-c3cnn(C)c3)nc21 [Savolitinib] + CC1(C)CCC(CN2CCN(c3ccc(C(=O)NS(=O)(=O)c4ccc(NCC5CCOCC5)c([N+](=O)[O-])c4)c(Oc4cnc5[nH]ccc5c4)c3)CC2)=C(c2ccc(Cl)cc2)C1 [Venetoclax] (first compound max 1 µM, 7x7, partner max 1 µM) to recorded Bliss excess (system: HCC2998 (Colorectal Carcinoma))
Ans. -0.0866

Qu. // map Cc1c2c(nn1C)CSCc1cc(n(C)n1)CSc1cc(c3ccccc3c1)OCCCc1c(C(=O)O)n(C)c3c-2c(Cl)ccc13 [AZD5991] + Cn1cnc2c(F)c(Nc3ccc(Br)cc3Cl)c(C(=O)NOCCO)cc21 [Selumetinib] (first compound max 1 µM, 7x7, partner max 3 µM) to recorded Bliss excess (system: HCC2998 (Colorectal Carcinoma))
Ans. 0.0417

###

Tested on: NCI-H1993 (Lung Adenocarcinoma)
PROCEDURE TEXT: Bliss excess, mean over the matrix (fraction); higher = more synergy
Consider the following compounds; for each one, report its Bliss excess.
Number, no unit, nothing else.

Qu. Return reported Bliss excess; argument: CCN(CCO)CCCOc1ccc2c(Nc3cc(CC(=O)Nc4cccc(F)c4)[nH]n3)ncnc2c1 [AZD2811] + C[C@@H]1COCCN1C2=NC(=NC(=C2)C3(CC3)[S@](=N)(=O)C)C4=C5C=CNC5=NC=C4 [AZD6738] (first compound max 1 µM, 7x7, partner max 10 µM)
Ans. -0.0726

Qu. Return reported Bliss excess; argument: COc1nnc2ccc(N3CCC(c4ccc(OCCN5CCN(C)C(=O)[C@H]5C)cc4)CC3)nn12 [AZD5153] + C[C@@H]1COCCN1C2=NC(=NC(=C2)C3(CC3)[S@](=N)(=O)C)C4=C5C=CNC5=NC=C4 [AZD6738] (first compound max 1 µM, 7x7, partner max 10 µM)
Ans. -0.0462

Qu. Return reported Bliss excess; argument: COc1cccc(OCCCN)c1-c1cc(Nc2cnc(C#N)cn2)n[nH]1 [Prexasertib] + CCc1c2c(nc3ccc(O)cc13)-c1cc3c(c(=O)n1C2)COC(=O)[C@]3(O)CC [SN-38] (first compound max 1 µM, 7x7, partner max 0.3 µM)
Ans. 0.055
